test: Cytotoxicity against human THP-1 cells assessed as reduction in cell viability measured after 24 hrs by resazurin staining based analysis; type: toxicity
Measured CC50 at 24 h by item

substance-smiles | reported-result
O=C(N/N=C/c1ccc(OCc2cn(-c3ccnc4cc(Cl)ccc34)nn2)cc1)c1ccncc1 | > 100 µg/mL
COc1cc(/C=N/NC(=O)c2ccncc2)ccc1OCc1cn(CCNc2ccnc3cc(Cl)ccc23)nn1 | > 100 µg/mL
O=C(N/N=C/c1ccc(OCc2cn(CCCNc3ccnc4cc(Cl)ccc34)nn2)cc1)c1ccncc1 | > 100 µg/mL
O=C(N/N=C/c1ccccc1-n1cc(CN2CCN(c3ccnc4cc(Cl)ccc34)CC2)nn1)c1ccncc1 | 13 µg/mL
COc1cc(/C=N/NC(=O)c2ccncc2)ccc1OCc1cn(-c2ccnc3cc(Cl)ccc23)nn1 | > 100 µg/mL
O=C(N/N=C/c1ccc(OCc2cn(CCNc3ccnc4cc(Cl)ccc34)nn2)cc1)c1ccncc1 | > 100 µg/mL
CO[C@H]1/C=C/O[C@@]2(C)Oc3c(C)c(O)c4c(c3C2=O)C2=NC3(CCN(CC(C)C)CC3)NC2=C(NC(=O)/C(C)=C\C=C\[C@H](C)[C@H](O)[C@@H](C)[C@@H](O)[C@@H](C)[C@H](OC(C)=O)[C@@H]1C)C4=O | 60 µg/mL

Could you now consider this next molecule?
Req: Quick one: CC50 at 24 h for COc1cc(/C=N/NC(=O)c2ccncc2)ccc1OCc1cn(CCCNc2ccnc3cc(Cl)ccc23)nn1 ?
Resp: > 100 µg/mL
